Test name: chemical genetic growth profiling, strain panel (AID 1159580);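 note: tested at 20 µM; growth read once vehicle control cultures reached saturation at 30 °C; 1 = growth at the plate median or of vehicle wells; lower values mean less growth of the strain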
Experimental parameters: S. cerevisiae deletion strains, growth OD, locus YJL115W, strain asf1, stronger effect = lower value
Hit rate of the full screen: of about 5,500 compounds, about 2,000 (36%) were called active. Not shown: some 18% with an inconclusive outcome. Some of the results follow.
Each entry below carries its recorded normalized growth.

Here is how some molecules turned out for normalized growth.
Molecule	Quantity name	Endpoint value
C=C1CCC(C2CC(=O)OC2=O)C(=O)CCC2C1CC2(C)C (configuration not stated)	normalized growth	0.999 (inactive)
Cc1cc(-c2ccccc2)nnc1NCCN1CCOCC1	normalized growth	0.991 (inactive)
CCCCNc1ccc(C(=O)OCCN(C)C)cc1	normalized growth	1.03 (inactive)

Tell me the measured normalized growth of CCCCN1CCCCC1C(=O)Nc1c(C)cccc1C (configuration not stated) , please.
0.998 (inactive)

Tell me the measured normalized growth of O=C1C=C2C=C[C@@H]3C[C@@]2(O1)[C@H]1CCCCN31 , please.
0.993 (inactive)

Tell me the measured normalized growth of CCCCCCOc1ccccc1C(N)=O , please.
0.96 (inactive)

Tell me the measured normalized growth of O=C(O)CN(CC(=O)O)Cc1cc2c(-c3ccccc3C(=O)O)c3cc(CN(CC(=O)O)CC(=O)O)c(=O)cc-3oc2cc1O , please.
0.947 (inactive)

Tell me the measured normalized growth of CCCCN(CCCC)CCCOC(=O)c1ccc(N)cc1 , please.
0.993 (inactive)

----------
Test name: chemical genetic growth profiling, strain panel (AID 1159580);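 note: tested at 20 µM; growth read once vehicle control cultures reached saturation at 30 °C; 1 = growth at the plate median or of vehicle wells; lower values mean less growth of the strain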
Experimental parameters: S. cerevisiae deletion strains, growth OD, locus YPR141C, strain kar3
Out of some 5,500 compounds screened, about 2,000 (36%) were called active. Roughly 18% stayed inconclusive and do not appear here. Rule as the data show it: active = normalized growth mostly below about 0.91 (no sharp cut-off); inconclusive = no clear call, values can overlap the other calls; inactive = mostly above about 0.92. Some of the results follow.
The reply should be one of these categories: Y (active), N (inactive)

Molecule	Group label
CC(C)NCC(O)c1cc(O)cc(O)c1 (stereo not given)	N

In this assay, the call recorded for COc1c2ccoc2c(OC)c2oc(=O)ccc12 was what?
N

In this assay, the call recorded for C=C1C(=O)O[C@@H]2C[C@@]3(C)CCC[C@H](C)C3=C[C@H]12 was what?
N

In this assay, the call recorded for C=C1CCC2C(CC2(C)C)C(=C)CC/C1=N\O (stereo not given) was what?
N

In this assay, the call recorded for CCN(CC)C(=O)c1cccc(C)c1 was what?
N

In this assay, the call recorded for C[C@@H]1C(=O)OC2[C@H](O)C34[C@@H]5OC(=O)[C@@]3(O[C@@H]3OC(=O)[C@H](O)[C@@]34[C@H](C(C)(C)C)[C@H]5O)[C@]21O (stereo not given in full) was what?
N

In this assay, the call recorded for O=S1OCC2C(CO1)C1(Cl)C(Cl)=C(Cl)C2(Cl)C1(Cl)Cl (stereo not given) was what?
N

In this assay, the call recorded for CC(C(=O)O)c1ccc(C(=O)c2cccs2)cc1 (stereo not given) was what?
N

In this assay, the call recorded for C[N+]1(C)C2CC(OC(=O)[C@@H](CO)c3ccccc3)CC1C1OC12 (stereo not given in full) was what?
N

In this assay, the call recorded for C=C1CCC(=O)C(C)CCC2C1CC2(C)C (stereo not given) was what?
N

----------
Test name: chemical genetic growth profiling, strain panel (AID 1159580);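 note: tested at 20 µM; growth read once vehicle control cultures reached saturation at 30 °C; 1 = growth at the plate median or of vehicle wells; lower values mean less growth of the strain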
Experimental parameters: S. cerevisiae deletion strains, growth OD, locus YAL030W, strain snc1, stronger effect = lower value
Among all 5,500 compounds or so, about 2,000 (36%) were called active. Inconclusive results (about 18%) are left out. This is one part of the list.
Each entry below carries its recorded normalized growth.
Respond using a number only.

Here is how some compounds turned out for normalized growth.
Compound	Quantity name	Endpoint value
CC(C)[C@@H]1CC[C@@H](C)C[C@H]1O	normalized growth	0.984
CCC(C)(C)C(=O)O[C@H]1C[C@@H](C)C=C2C=C[C@H](C)[C@H](CC[C@@H]3C[C@@H](O)CC(=O)O3)[C@H]21	normalized growth	1.01
COC(=O)C[C@H]1C(C)(C)C(=O)[C@@H]2CC3=C(CC[C@]4(C)C3=CC(=O)O[C@H]4c3ccoc3)[C@@]1(C)C2=O	normalized growth	0.979
CCC(C)C(=O)O[C@H]1C[C@H](O)C=C2C=C[C@H](C)[C@H](CC[C@@H](O)C[C@@H](O)CC(=O)O)C21 (some centres undefined)	normalized growth	1

Next item in the queue.
Tell me the measured normalized growth of C=CC(N)CCC(=O)O (centres undefined) , please.
0.985
